Target Under Test: T1, PACAP38 (human, not fully specified)
T1 peptide: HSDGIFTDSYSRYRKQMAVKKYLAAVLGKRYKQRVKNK
Experiment: cell-based or functional assay
Quantity: PACAP-38 IC50 (nM)
Give the value in nM but do not write nM after it.

response.value for 519C (antibody, V domains shown, LC S(27E), G29, L50, V51, K53T, L54R, D55E, H93W, P95D) VH: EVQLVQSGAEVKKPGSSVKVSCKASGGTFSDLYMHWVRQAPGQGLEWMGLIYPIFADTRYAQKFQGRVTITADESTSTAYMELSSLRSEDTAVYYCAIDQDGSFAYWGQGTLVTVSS VL: DIVMTQSPDSLAVSLGERATINCKSSQSLLDSDGKTYLNWLQQKPGQPPKRLIYLVSTRESGVPDRFSGSGSGTDFTLTISSLQAEDVAVYYCWQGTWFDLTFGGGTKVEIK (field: PACAP-38 IC50) = 0.27

Given item 609C (antibody, V domains shown) VH: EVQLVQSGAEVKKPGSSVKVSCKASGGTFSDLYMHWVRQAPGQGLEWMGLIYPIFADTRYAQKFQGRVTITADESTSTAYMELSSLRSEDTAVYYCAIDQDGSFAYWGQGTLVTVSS VL: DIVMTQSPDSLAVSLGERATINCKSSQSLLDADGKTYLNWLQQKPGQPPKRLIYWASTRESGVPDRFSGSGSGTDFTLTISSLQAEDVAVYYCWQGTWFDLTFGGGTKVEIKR , the value recorded as its PACAP-38 IC50 is 0.83

Item: 604C (antibody, V domains shown) VH: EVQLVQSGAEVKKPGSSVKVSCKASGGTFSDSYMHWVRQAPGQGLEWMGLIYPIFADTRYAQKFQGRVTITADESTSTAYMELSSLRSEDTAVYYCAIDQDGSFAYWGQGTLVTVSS VL: DIVMTQSPDSLAVSLGERATINCKSSQSLLDSDGKTYLNWLQQKPGQPPKRLIYWASTRESGVPDRFSGSGSGTDFTLTISSLQAEDVAVYYCWQGTWFDLTFGGGTKVEIK | PACAP-38 IC50: 0.16

Record 919A (antibody, V domains shown, Humanized anti-PACAP variant) VH: EVQLVQSGAEVKKPGSSVKVSCKASGGTFSDSYMHWVRQAPGQGLEWMGLIYPIFADTRYAQKFQGRVTITADESTSTAYMELSSLRSEDTAVYYCAIDYDGSFAYWGQGTLVTVSS VL: DIVMTQSPDSLAVSLGERATINCKSSQSLLDSDGKTYLNWLQQKPGQPPKRLIYLVSTRESGVPDRFSGSGSGTDFTLTISSLQAEDVAVYYCWQGTHFPLTFGGGTKVEIK , field PACAP-38 IC50: 1.3

Per the record, 524C (antibody, V domains shown, LC S(27E), G29, L50, V51, K53T, L54R, D55E, H93W, P95D) VH: EVQLVQSGAEVKKPGSSVKVSCKASGGTFSDSYMHWVRQAPGQGLEWMGLIYPIFADQRYAQKFQGRVTITADESTSTAYMELSSLRSEDTAVYYCAIDQDASFAYWGQGTLVTVSS VL: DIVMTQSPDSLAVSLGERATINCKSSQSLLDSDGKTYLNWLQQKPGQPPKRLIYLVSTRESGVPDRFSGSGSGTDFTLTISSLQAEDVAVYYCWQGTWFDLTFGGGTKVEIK has PACAP-38 IC50 of 0.36

Taken from patent US20260226154A1.
